- Measurement target: Negative control (amino acid sequence shown in SEQ ID NO: 2 in CN106046152A)
- Assay notes: ELISA, negative control well, TG1 supernatant
Property measured: ELISA (OD450)

M003 (VHH) VHH: QVQLVESGGGLVQAGGSLRLSCTASGNIFSINAMGWYRQPPGKEWERELVATISSTNSDNTYYKESVKGRFTISTNTAKNTWYLQMNSLKPEDTAMYYCAAENFDRKDRYWAQGTQVTVSS
0.0104
M156 (VHH) VHH: QVQLVESGGGLVQAGGSLRLSCAVSGISFEYYAIGWFRQAPGKEREAVSCTTSGTTSGGGVTDYADSLKGRFTISRDVAKNTVYLQMNNLTPEDTAVYYCAADIHCRGYVLFVPSDFGNWGQGTQVTVSS
0.0074
M210 (VHH) VHH: QVQLVESGGGLVQPGGSLRLSCAASGITLDNYAIAWFRQAPGKKREGVSCISSNGNTYYQPSVKGRFTIARDNAKNTVYLHMNNLNPEDTAVYYCQVGQFSSSTTPVQAMSVMSLYADWGQGTQVTVSS
0.0071
M118 (VHH) VHH: EVQLVESGGGLVQAGGSLTLSCAASEHTFTIDAMGYYRQIPGRRNERQLVAAAGRTGTTYYNDAVKDRFTIYRDTSKETIILQMNNLRPEDTTMYYCAVERYSDQSRFFGPGTQVTVSS
0.0074
